// reported pEC50 per item
TEST_SYSTEM: F508delCFTR (Homo sapiens, UniProt P13569, DEL508-508)
Construct: expressed in transfected cells; host or cells: CFBE41o- human lung-derived epithelial cells (CFBE4lo-F508delCFTR-HRP), doxycycline-inducible
Sequence (P13569 with tags, fused parts or gaps DEL508-508): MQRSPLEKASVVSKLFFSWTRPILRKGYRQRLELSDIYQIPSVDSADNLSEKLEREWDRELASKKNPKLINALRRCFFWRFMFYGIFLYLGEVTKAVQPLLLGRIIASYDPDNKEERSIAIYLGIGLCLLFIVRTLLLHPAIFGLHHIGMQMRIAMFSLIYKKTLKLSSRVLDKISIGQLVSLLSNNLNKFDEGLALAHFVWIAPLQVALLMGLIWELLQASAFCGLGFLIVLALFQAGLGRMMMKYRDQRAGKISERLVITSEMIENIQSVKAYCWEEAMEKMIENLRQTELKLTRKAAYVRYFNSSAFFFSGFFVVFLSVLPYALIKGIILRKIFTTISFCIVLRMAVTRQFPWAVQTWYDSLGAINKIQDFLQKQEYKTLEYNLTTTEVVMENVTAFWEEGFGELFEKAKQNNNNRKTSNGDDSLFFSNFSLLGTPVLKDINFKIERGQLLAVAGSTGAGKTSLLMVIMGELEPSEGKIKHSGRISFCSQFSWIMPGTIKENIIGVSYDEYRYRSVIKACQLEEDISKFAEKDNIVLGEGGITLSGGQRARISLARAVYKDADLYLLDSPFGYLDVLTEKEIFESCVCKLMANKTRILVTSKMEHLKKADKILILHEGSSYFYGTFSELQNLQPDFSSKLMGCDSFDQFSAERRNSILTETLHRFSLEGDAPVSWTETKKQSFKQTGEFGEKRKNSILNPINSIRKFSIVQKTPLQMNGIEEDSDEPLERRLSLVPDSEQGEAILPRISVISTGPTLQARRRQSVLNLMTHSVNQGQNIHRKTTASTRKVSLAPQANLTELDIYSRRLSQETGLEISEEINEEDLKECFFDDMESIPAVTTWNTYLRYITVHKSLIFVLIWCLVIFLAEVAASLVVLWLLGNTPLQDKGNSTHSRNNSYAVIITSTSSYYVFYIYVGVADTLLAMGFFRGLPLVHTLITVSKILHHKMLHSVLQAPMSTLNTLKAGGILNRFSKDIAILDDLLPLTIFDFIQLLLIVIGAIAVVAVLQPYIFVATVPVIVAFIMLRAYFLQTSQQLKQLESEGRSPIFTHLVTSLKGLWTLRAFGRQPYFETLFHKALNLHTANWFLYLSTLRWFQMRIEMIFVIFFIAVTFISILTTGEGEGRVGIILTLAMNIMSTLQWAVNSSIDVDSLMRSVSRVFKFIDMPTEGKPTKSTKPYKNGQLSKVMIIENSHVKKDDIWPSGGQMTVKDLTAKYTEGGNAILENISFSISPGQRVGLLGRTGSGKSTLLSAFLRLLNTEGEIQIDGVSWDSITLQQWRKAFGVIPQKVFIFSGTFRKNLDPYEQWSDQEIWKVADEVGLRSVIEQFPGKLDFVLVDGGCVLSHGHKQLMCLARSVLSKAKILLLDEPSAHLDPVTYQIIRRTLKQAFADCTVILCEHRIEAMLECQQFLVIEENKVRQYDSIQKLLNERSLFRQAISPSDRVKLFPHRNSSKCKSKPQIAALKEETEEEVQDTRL
ASSAY_SUMMARY: Cell Surface Expression-Horse Radish Peroxidase (CSE-HRP) Assay
Type: cell-based
RECORDED_CONDITIONS: test compound without co-corrector; read-out: EC50 (without co-corrector)
pEC50: −log10 of the molar value.

Known results for compounds:
>>> recorded_value("COc1ncc(C(F)(F)F)cc1CN[C@H]1[C@H](C(C)(C)C)[C@@H](C(=O)O)N(C(=O)OC(C)C)[C@H]1c1ccccc1")
"5.00 to 6.00"
>>> recorded_value("COc1ccc(C(C)(C)C)cc1CN[C@H]1[C@H](C(C)(C)C)[C@@H](C(=O)O)N(C(=O)C2Cc3ccccc3O2)[C@H]1c1cccnc1N(C)C (single isomer, unassigned) [Example 36]")
"> 6.00"
>>> recorded_value("COc1ccc(C23CC(C2)C3)cc1CN[C@H]1[C@H](C(C)(C)C)[C@@H](C(=O)O)N(C(=O)OC(C)C)[C@H]1c1ccccc1")
"5.00 to 6.00"
>>> recorded_value("CC(C)(C)[C@@H]1[C@@H](NCc2ccccc2C#N)[C@@H](c2ccccc2)N(C(=O)C2CCCCC2)[C@H]1C(=O)O (racemic)")
"< 5.00"

Now look at this entry.
Give a short answer stating reported pEC50 for COc1ncc(C(F)(F)F)cc1CN[C@H]1[C@H](C(C)(C)C)[C@@H](C(=O)O)N(C(=O)[C@H]2CC[C@@H](c3ccccc3)O2)[C@H]1c1ccccc1 (relative stereo) .
5.00 to 6.00
